# assayName: Pharmacokinetic evaluation in plasma after IV and PO administration
# Assay type: in vivo
# measurementContext: female Balb/c mice, PO 10 mg/kg
observationType: Tlast (h)

Consider the worked cases shown below.
compound | Tlast [h]
CNC(=O)c1cccc(-c2ccc3c(N4CCOC[C@@H]4C)nc(N4CCOC5(CCC5)C4)nc3n2)c1 [Embodiment 23] | 24.0
CNC(=O)c1cccc(-c2ccc3c(N4CCOC[C@@H]4C)nc(N4CCOC[C@@H]4C)nc3n2)c1 [AZD2014, reference compound] | 24.0

A. C[C@H]1COCCN1c1nc(N2CCOC3(CC3)C2)nc2nc(-c3cccc(C(N)=O)c3)ccc12 [Embodiment 51]
B. CNC(=O)c1cccc(-c2ccc3c(N4CCOC[C@@H]4C)nc(N4CCOC5(CC5)C4)nc3n2)c1 [Embodiment 1]
In: Which has the smaller recorded Tlast, A or B ? Identify your selection by its label.
Out: A
(A: 12.0 h, B: 24.0 h)
